The measurements presented in this section are drawn from patent US20070092518A1.

system under test: T1, human tumor necrosis factor-α (rHuTNF-alpha, Biosource) (human, UniProt P01375 77-233)
T1 construct: Bought recombinant protein coated on ELISA plates; The TNFα of the Biacore assay is not described further; also called TNFα; human TNFα
T1 sequence (P01375 77-233 limits assumed): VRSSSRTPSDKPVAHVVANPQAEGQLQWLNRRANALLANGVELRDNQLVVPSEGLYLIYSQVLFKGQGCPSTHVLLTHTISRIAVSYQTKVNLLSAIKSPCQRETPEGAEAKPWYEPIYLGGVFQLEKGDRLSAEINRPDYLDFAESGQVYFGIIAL
experimental details: solid-phase ELISA, Fab lysate on coated rHuTNF-alpha
measured property: binding result

These solved cases illustrate the format of a correct answer.
SEQ ID NO 167 (Fab, V domains shown, Fab, E. coli lysate) VH: EVQLVESGGGLVQPGGSLRLSCAASQFTFSNHWMNWVRQAPGKGLEWIGEIRSKSSYGATHYAESVKGRFIISRDDNKTDLTLEMNSLKTEDTAEYYCARNYYGSTYDYWGQGTLVTVS VL: EIVLTQSPDFQSVTPKEKVTITCRASQFVGSSIHWYQQKPDQSPKLLIKYASESMSGVPSRFSGSGSGTDFTFTISSLEAEDAATYYCQQSHSWPFTFGPGTKVDIK :: binds
SEQ ID NO 100 (Fab, V domains shown, Fab, E. coli lysate) VH: EVQLTESGGGLVQPGGSLRLSCRASQFIFSNHYMNWVRQAPGKGLEWIGEIRSKSINGATHYAESVKGRFIISRDDNKTDLYLEMNSLKTEDTAEYYCARNYYGSTYDYWGQGTLVTVS VL: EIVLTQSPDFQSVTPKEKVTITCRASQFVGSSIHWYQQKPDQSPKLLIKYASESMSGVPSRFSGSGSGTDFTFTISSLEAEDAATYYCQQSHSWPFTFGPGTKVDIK :: binds
SEQ ID NO 24 (Fab, V domains shown, Fab, E. coli lysate) VH: EVQLTESGGGLVQPGGSLRLSCAASGSIFSNHWMNWVRQAPGKGLEWIGEIRSKSINGATSYAESVKGRFIISRDDNGNSLTLEMNSLKTEDTAEYYCAQNYYGSTPDYWGQGTLVTVS VL: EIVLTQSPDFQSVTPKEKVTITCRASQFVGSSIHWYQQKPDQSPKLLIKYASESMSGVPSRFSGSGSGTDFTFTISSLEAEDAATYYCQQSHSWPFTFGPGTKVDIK :: binds
SEQ ID NO 190 (Fab, V domains shown, Fab, E. coli lysate) VH: EVQLVESGGGLVQPGGSLRLSCRASGFIFSNHWMNWVRQAPGKGLEWIGEIRSKSINSATSYAESVKGRFIISRDGNKTDLTLEMNSLKTEDTAEYYCARNYYGSTYDYWGQGTLVTVS VL: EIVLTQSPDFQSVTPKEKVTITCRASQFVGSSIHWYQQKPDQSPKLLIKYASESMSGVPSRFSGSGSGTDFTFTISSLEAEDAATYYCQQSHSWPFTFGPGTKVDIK :: binds

# query: binding result of entry SEQ ID NO 40 (Fab, V domains shown, Fab, E. coli lysate) VH: EVQLVESGGGLVQPGGSLRLSCAASGSTFSNHYMNWVRQAPGKGLEWIGEIRSKSINSATSYAESVKGRFIISRDGNGTSLYLEMNSLKTEDTAEYYCARNYYGSTYDYWGQGTLVTVS VL: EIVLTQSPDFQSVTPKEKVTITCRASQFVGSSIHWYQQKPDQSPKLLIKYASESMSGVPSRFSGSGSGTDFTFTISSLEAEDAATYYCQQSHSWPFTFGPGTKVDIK binds
